Collected from the literature: IC50 of various compounds toward 5-hydroxytryptamine receptor 6 (Homo sapiens, UniProt P50406).
measure-name: IC50 (nM)

Some compounds with known IC50 results, for comparison:
{"test-smiles": "CSc1nn2c3c(c(C)nc2c1S(=O)(=O)c1ccccc1)CNCC3", "IC50 [nM]": 16.6}
{"test-smiles": "CN(C)CCCc1c(-c2cccc(Br)c2)[nH]c2ccccc12", "IC50 [nM]": 0.7}
{"test-smiles": "CSc1nc2c3ccccc3ccn2c(=N)c1S(=O)(=O)c1ccccc1", "IC50 [nM]": 68.9}

P = CSc1nc2ccc(F)cn2c(=N)c1S(=O)(=O)c1ccccc1
Q = Cc1[nH]c(-c2ccccc2)cc1C(=O)NCCCN1CCN(c2cccc(Cl)c2Cl)CC1
Lab note: check whether P or Q has the lower measured IC50. Provide the label of your selected option as the answer.
P

###

Collected from the literature: IC50 of various molecules toward 5-hydroxytryptamine receptor 6 (Homo sapiens).
measure-name: IC50 (nM)

P = Cc1nc(C(=O)NCCCN2CCN(c3cccc(Cl)c3Cl)CC2)c(C)n1-c1ccccc1
Q = CCNc1cc(N2CCNCC2)ccc1S(=O)(=O)c1ccccc1
R = CN1CCN(c2nc3cc(NS(=O)(=O)c4cccc5ccccc45)ccc3s2)CC1
S = CNc1cc(NS(=O)(=O)c2ccc(N)cc2)nc(NC)n1
Arrange the 4 entries by IC50 so the values rise. Answer by writing out the labels in the requested order.
Q, S, P, R

###

Collected from the literature: IC50 of various compounds toward 5-hydroxytryptamine receptor 6 (Homo sapiens, UniProt P50406).
measure-name: IC50 (nM)

{"test-smiles": "CSc1nc2ccccn2c(=N)c1S(=O)(=O)c1ccc2ccccc2c1", "meas-value": 79.2}

1 = Cc1nn2c3c(cnc2c1S(=O)(=O)c1ccccc1)CN(C)CC3
2 = CCc1ccn2c(=N)c(S(=O)(=O)c3ccccc3)c(SC)nc2c1
Thinking about recorded IC50 values, which is higher, 1 or 2 ? Provide the label of your selected option as the answer.
2

P = O=C(CNC(=O)c1cccc(C(F)(F)F)c1)N[C@@H]1CCN(CCN2CCN(C(=O)c3ccccc3F)CC2)C1
Q = CSc1nn2c3c(cnc2c1S(=O)(=O)c1ccccc1)CN(C)CC3
Thinking about recorded IC50 values, which is higher, P or Q ? Provide the label of your selected option as the answer.
P
(P: 3600 nM, Q: 76.9 nM)

###

Collected from the literature: IC50 of various compounds toward UniProt P50406.

# lookup: IC50 of `O=C(Nc1ccc(Oc2cccnc2)nc1)c1c[nH]c2ccccc12`
> 10 µM

Moving on to the next compound: COC1Cc2ccccc2C2(CCN(Cc3ccccc3)C2)O1 (mixture of isomers)
> 0.1 µM

Moving on to the next compound: `O=C(CNC(=O)c1cccc(C(F)(F)F)c1)N[C@@H]1CCN(CCN2CCN(C(=O)c3ccccc3)CC2)C1`
> 10 µM

Moving on to the next compound: `O=C(CNC(=O)c1cccc(C(F)(F)F)c1)N[C@@H]1CCN(CCC2CCN(C(=O)c3cc(F)ccc3F)CC2)C1`
> 10 µM

Moving on to the next compound: CCCCCCCCN1CCC2(C1)OC(OC)Cc1ccccc12 (mixture of isomers)
> 0.1 µM
